PROCEDURE_TEXT: -log concentration required to induce 50% maximum lipogenic activity against Peroxisome proliferator activated receptor gamma
pEC50: −log10 of the molar value.
PROPERTY_NAME: pEC50

Reference set (4 entries):
{"MOLECULE": "Cc1oc(-c2ccccc2)nc1CCOc1ccc(CC(Nc2ccccc2C(=O)c2ccc(CO)cc2)C(=O)O)cc1 (stereo not drawn)", "RESULT": 6.76}
{"MOLECULE": "CN(CCOc1ccc(CC(Nc2ccccc2C(=O)C2CCCC2)C(=O)O)cc1)c1nc2ccccc2o1 (stereo not drawn)", "RESULT": 7.62}
{"MOLECULE": "Cc1oc(-c2ccccc2)nc1CCOc1ccc(CC(Nc2ccccc2C(=O)c2cccnc2)C(=O)O)cc1 (stereo not drawn)", "RESULT": 7.77}
{"MOLECULE": "Cc1oc(-c2ccccc2)nc1CCOc1ccc(CC(Nc2ccccc2C(=O)c2cccc(N)c2)C(=O)O)cc1 (stereo not drawn)", "RESULT": 6.88}

(P) Cc1cccc(C(=O)c2ccccc2NC(Cc2ccc(OCCN(C)c3nc4ccccc4o3)cc2)C(=O)O)c1 (stereo not drawn)
(Q) CN(CCOc1ccc(CC(Nc2ccc(Cl)cc2C(=O)c2ccccc2)C(=O)O)cc1)c1nc2ccccc2o1 (stereo not drawn)
Input: Smaller pEC50 value, P vs Q ? Let me know the label of the one you choose.
Output: Q

(a) CN(CCOc1ccc(CC(Nc2ccccc2C(=O)c2cccs2)C(=O)O)cc1)c1nc2ccccc2o1 (stereo not drawn)
(b) COc1ccccc1C(=O)c1ccccc1NC(Cc1ccc(OCCN(C)c2nc3ccccc3o2)cc1)C(=O)O (stereo not drawn)
Input: Sorting ascending by pEC50, which comes first: a or b ? Select an item and report its label.
Output: b
(b: 6.30, a: 7.11)

(1) Cc1oc(-c2ccccc2)nc1CCOc1ccc(CC(Nc2ccccc2C(=O)c2ccncc2)C(=O)O)cc1 (stereo not drawn)
(2) Cc1oc(-c2ccccc2)nc1CCOc1ccc(CC(Nc2ccccc2C(=O)c2cccc(CN(C)C)c2)C(=O)O)cc1 (stereo not drawn)
(3) Cc1oc(-c2ccccc2)nc1CCOc1ccc(CC(Nc2ccccc2C(=O)OC(C)C)C(=O)O)cc1 (stereo not drawn)
(4) CN(CCOc1ccc(CC(Nc2cscc2C(=O)c2ccccc2)C(=O)O)cc1)c1nc2ccccc2o1 (stereo not drawn)
Input: # rank_down: sort by pEC50, max first Please respond with the labels ordered as the question requires.
Output: 4, 3, 1, 2
(4: 8.85, 3: 8.49, 1: 6.97, 2: 5.93)

(1) CN(CCOc1ccc(CC(Nc2ccccc2C(=O)c2ccc(C(F)(F)F)cc2)C(=O)O)cc1)c1nc2ccccc2o1 (stereo not drawn)
(2) CN(CCOc1ccc(CC(Nc2ccccc2C(=O)c2ccccc2)C(=O)O)cc1)c1nc2ccccc2o1 (stereo not drawn)
Input: // select label with min value of measured pEC50 from [ 1 , 2 ] Write the label of whichever entry you select.
Output: 1
